test: H1N1 influenza NS1A inhibitors, functional cell based assay (AID 504329); details: percent inhibition, at 12.5 µM, hits give high values
Among all 340,000 compounds or so, about 1,000 (0.29%) were called active. The list is a sample of the results. Measured potencies and affinities stand elsewhere.
OBSERVABLE: inhibition

Worked cases, answers included:
• CCN(CC)c1ccc(/C=C(\C#N)C(N)=O)cc1 = 2.41% (inactive)
• Cc1ncc(N=Nc2ccccc2)c(-c2ccccc2)n1 = 23.1% (inactive)
• CCN(C(=O)COC(=O)CNS(=O)(=O)c1ccc2ccccc2c1)C1CCCCC1 = -3.12% (inactive)

Requested read-out: inhibition. Entry: "O=CNCC(=O)NC1CCCCCC1"
-2.65% (inactive)

Please give the measured inhibition for this molecule: "Cc1cnc(C)c(N2CCN(Cc3cn(C)nc3-c3cccc(Cl)c3)CC2)n1"
-9.06% (inactive)

Suppose we examine the molecule Cc1ccc(C)c(OC(C)C(=O)Nc2nccs2)c1 (configuration not stated) ; what inhibition value has been reported?
-0.26% (inactive)

Requested read-out: inhibition. Entry: "Cc1ccc(S(=O)(=O)N2CCN(C(=O)C3CCCC3)CC2)cc1C"
-7.76% (inactive)

Param item = "CCc1ccc(/C=C(/C#N)C(N)=S)cc1" ; retrieve measured inhibition.
-1.52% (inactive)

GET /values?readout=inhibition&item= "CC(=O)c1ccc(NC(=O)Nc2ccc(Br)cc2C)cc1"
1.12% (inactive)

Param item = "COc1cccc(CCc2nc3ccccc3c(=O)n2N)c1" ; retrieve measured inhibition.
-4.28% (inactive)

So what's the measured inhibition for this one? COc1ccc(CNC(=O)C(OC(=O)c2ccco2)c2ccccc2F)cc1 (configuration not stated)
4.89% (inactive)

What does the record list as inhibition for "CC(C)CNC(=O)COc1cccc(C(=O)NCc2ccccc2)c1" ?
-16.8% (inactive)

----------
experiment: H1N1 influenza NS1A inhibitors, functional cell based assay (AID 504329); details: percent inhibition, at 12.5 µM, hits give high values
Hit rate of the full screen: of about 340,000 compounds, about 1,000 (0.29%) were called active. Only a sample is shown. Measured potencies and affinities stand elsewhere.
# key: entry, value: inhibition
Record the value in %, omitting the unit from your answer.

The examples below pair each entry with its known result.
- COc1cc(/C=N/NC(=O)C(=O)Nc2ccccn2)ccc1O: -6.98
- O=C(Nc1ccccn1)C(=O)Nc1ccccn1: -1.25
- O=C(NCc1ccccn1)C(=O)N/N=C/c1ccc2c(c1)OCO2: -4.91

What value of inhibition has been reported for the following compound? "O=C(CSc1n[nH]c(-c2cccs2)n1)NCCc1ccccc1"
-3.95

State the recorded inhibition for this entry: "Cc1cc(/C=N/NC(=O)C(=O)NCc2ccccn2)c(C)n1-c1ccccc1"
-2.44

Entry under review: "O=C(O)c1cc(-c2ccccc2)nc2ccccc12" . Reported inhibition?
1.29

----------
Reported inhibition values follow for various compounds
test: H1N1 influenza NS1A inhibitors, functional cell based assay (AID 504329); details: percent inhibition, at 12.5 µM, hits give high values
About 1,000 (0.29%) of roughly 340,000 compounds were called active. Only a sample is shown. Measured potencies and affinities stand elsewhere.
Respond with the bare value in %.

Completed entries (count: 8):
- Cc1oc(-c2cccc(Cl)c2)nc1CN1CCC(C(=O)NCc2cccnc2)CC1: 9.09
- O=C(O)c1cccc2c1-c1ccc(Cl)cc1C2=O: -19.9
- CN1CC(C(=O)c2ccc(Cl)cc2)C(c2ccccc2)C1 (stereo unspecified): -3.51
- CN(C)CCNc1ccc(CO)c2sc3ccc(O)cc3c(=O)c12: 21.9
- CC[C@]12C(=O)N(C)C[C@H]([C@@H]3C(=O)N(Cc4ccccc4)C(=O)[C@@H]31)N2C(=O)c1ccc(Br)cc1: 1.57
- CCN(CC)c1ccccc1: -3.57
- N/C(=N\OC(=O)Cc1ccccc1[N+](=O)[O-])c1ccccn1: -3.44
- CN(C)c1ccc(-c2cc(O)c3ncccc3c2)cc1: 21.2

May I ask what inhibition has been recorded for "c1cc(-c2ccncc2)ccn1" ?
-1.52

Field request: inhibition | item: COc1cc(CNC2CCC(C)C2)cc(OC)c1 (stereo unspecified)
4.05

Report inhibition for "COc1cccc(-n2c(SCC(=O)NCc3cccs3)nc3ccccc3c2=O)c1" please.
0.54
